Tested on: HT-29
procedure-details: Cytotoxicity against human HT29 cells after 48 hrs by SRB assay
Type: functional, cell-based
measurement-conditions: Homo sapiens, HT-29, 48 h; read-out: LC50 (the source's name)
parameter-measured: CC50 (nM)
Hi! Could you send only the number? It should be in nM, unit omitted.

// solved cases for CC50 follow
C/C=C1\NC(=O)[C@H](Cc2ccccc2)NC(=O)[C@@H](C(C)C)NC(=O)[C@@H]([C@H](C)CC)NC(=O)[C@H](NC(=O)[C@H](NC(=O)[C@H](CCCN)NC(=O)[C@H]2CCCN2C(=O)[C@H](NC(=O)[C@@H](NC(=O)[C@@H](NC(=O)[C@H](NC(=O)Cc2ccc(C(F)(F)F)cc2)C(C)C)[C@@H](C)O)C(C)C)C(C)C)[C@H](C)CC)[C@H](C)OC(=O)[C@H](C(C)C)NC1=O: 2920
C/C=C1\NC(=O)[C@H](Cc2ccccc2)NC(=O)[C@@H](C(C)C)NC(=O)[C@@H]([C@H](C)CC)NC(=O)[C@H](NC(=O)[C@H](NC(=O)[C@H](CCCN)NC(=O)[C@H]2CCCN2C(=O)[C@H](NC(=O)[C@@H](NC(=O)[C@@H](NC(=O)[C@H](NC(=O)CCCCCC)C(C)C)[C@@H](C)O)C(C)C)C(C)C)[C@H](C)CC)[C@H](C)OC(=O)[C@H](C(C)C)NC1=O: 1070
C/C=C1\NC(=O)[C@H](Cc2ccccc2)NC(=O)[C@@H](C(C)C)NC(=O)[C@@H]([C@H](C)CC)NC(=O)[C@H](NC(=O)[C@H](NC(=O)[C@H](CCCN)NC(=O)[C@H]2CCCN2C(=O)[C@H](NC(=O)[C@@H](NC(=O)[C@H](CCC(=O)O)NC(=O)[C@H](NC(=O)CCCC(C)C)C(C)C)C(C)C)C(C)C)[C@H](C)CC)[C@H](C)OC(=O)[C@H](C(C)C)NC1=O: 422
C/C=C1\NC(=O)[C@H](Cc2ccccc2)NC(=O)[C@@H](C(C)C)NC(=O)[C@@H]([C@H](C)CC)NC(=O)[C@H](NC(=O)[C@H](NC(=O)[C@H](CCCN)NC(=O)[C@H]2CCCN2C(=O)[C@H](NC(=O)[C@@H](NC(=O)[C@@H](NC(=O)[C@@H](NC(=O)CCCC(C)C)C(C)C)[C@@H](C)O)C(C)C)C(C)C)[C@H](C)CC)[C@H](C)OC(=O)[C@H](C(C)C)NC1=O: 501

Consider now this further compound.
Q) Look up CC50 for this compound: "C/C=C1\NC(=O)[C@H](Cc2ccccc2)NC(=O)[C@@H](C(C)C)NC(=O)[C@@H]([C@H](C)CC)NC(=O)[C@H](NC(=O)[C@H](NC(=O)[C@H](CCCN)NC(=O)[C@@H]2CCCN2C(=O)[C@H](NC(=O)[C@@H](NC(=O)[C@@H](NC(=O)[C@H](NC(=O)CC[C@@H](C)CC)C(C)C)[C@@H](C)O)C(C)C)C(C)C)[C@H](C)CC)[C@H](C)OC(=O)[C@H](C(C)C)NC1=O"
A) 6760

====

Reported values of LC50 for individual entries
Tested on: A549
procedure-details: Cytotoxicity against human A549 cells after 48 hrs by SRB assay
Type: functional, cell-based
measurement-conditions: Homo sapiens, A549, 48 h

// solved cases for LC50 follow
C/C=C1\NC(=O)[C@H](CCC2CCCCC2)NC(=O)[C@@H](C(C)C)NC(=O)[C@@H]([C@@H](C)CC)NC(=O)[C@H](NC(=O)[C@H](NC(=O)[C@H](CCCN)NC(=O)[C@H]2CCCN2C(=O)[C@H](NC(=O)[C@@H](NC(=O)[C@@H](NC(=O)[C@H](NC(=O)CCCC(C)C)C(C)C)[C@@H](C)O)C(C)C)C(C)C)[C@@H](C)CC)[C@@H](C)OC(=O)[C@H](C(C)C)NC1=O: 959 nM
C/C=C1\NC(=O)[C@H](Cc2ccccc2)NC(=O)[C@@H](C(C)C)NC(=O)[C@@H]([C@H](C)CC)NC(=O)[C@H](NC(=O)[C@H](NC(=O)[C@H](CCCNC(=O)CCC2CCCCC2)NC(=O)[C@H]2CCCN2C(=O)[C@H](NC(=O)[C@@H](NC(=O)[C@@H](NC(=O)[C@H](NC(=O)CCCC(C)C)C(C)C)[C@@H](C)O)C(C)C)C(C)C)[C@H](C)CC)[C@H](C)OC(=O)[C@H](C(C)C)NC1=O: 365 nM

Consider now this further compound.
Q) # query: LC50 | item "C/C=C1\NC(=O)[C@@H](Cc2ccccc2)NC(=O)[C@H](C(C)C)NC(=O)[C@H]([C@H](C)CC)NC(=O)[C@@H](NC(=O)[C@@H](NC(=O)[C@@H](CCCN)NC(=O)[C@@H]2CCCN2C(=O)[C@@H](NC(=O)[C@H](NC(=O)[C@H](NC(=O)[C@@H](NC(=O)CCCC(C)C)C(C)C)[C@@H](C)O)C(C)C)C(C)C)[C@H](C)CC)[C@H](C)OC(=O)[C@H](C(C)C)NC1=O" | system: A549
A) 1920 nM

====

Test system: K562
procedure-details: Cytotoxicity against human K562 cells after 48 hrs by SRB assay
Type: functional
measurement-conditions: K562, 48 h
Reported values of log10 GI50 for individual entries
Please keep in mind that the values are log10 of GI50 expressed in µM.

// solved cases for log10 GI50 follow
C/C=C1\NC(=O)[C@H](Cc2ccccc2)NC(=O)[C@@H](C(C)C)NC(=O)[C@@H]([C@H](C)CC)NC(=O)[C@H](NC(=O)[C@H](NC(=O)[C@H](CCCN)NC(=O)[C@H]2CCCN2C(=O)[C@H](NC(=O)CNC(=O)[C@@H](NC(=O)[C@H](NC(=O)CCCC(C)C)C(C)C)[C@@H](C)O)C(C)C)[C@H](C)CC)[C@H](C)OC(=O)[C@H](C(C)C)NC1=O: 0.41
C/C=C1\NC(=O)[C@@H]2Cc3ccccc3CN2C(=O)[C@@H](C(C)C)NC(=O)[C@@H]([C@H](C)CC)NC(=O)[C@H](NC(=O)[C@H](NC(=O)[C@H](CCCN)NC(=O)[C@H]2CCCN2C(=O)[C@H](NC(=O)[C@@H](NC(=O)[C@@H](NC(=O)[C@H](NC(=O)CC[C@@H](C)CC)C(C)C)[C@@H](C)O)C(C)C)C(C)C)[C@H](C)CC)[C@H](C)OC(=O)[C@H](C(C)C)NC1=O: 0.69
C/C=C1\NC(=O)[C@H](Cc2ccc3ccccc3c2)NC(=O)[C@@H](C(C)C)NC(=O)[C@@H]([C@H](C)CC)NC(=O)[C@H](NC(=O)[C@H](NC(=O)[C@H](CCCN)NC(=O)[C@H]2CCCN2C(=O)[C@H](NC(=O)[C@@H](NC(=O)[C@@H](NC(=O)[C@H](NC(=O)CCCC(C)C)C(C)C)[C@@H](C)O)C(C)C)C(C)C)[C@H](C)CC)[C@H](C)OC(=O)[C@H](C(C)C)NC1=O: -0.54
C/C=C1\NC(=O)[C@H](Cc2ccccc2)NC(=O)[C@@H](C(C)C)NC(=O)[C@@H]([C@H](C)CC)NC(=O)[C@H](NC(=O)[C@H](NC(=O)[C@H](CCCN)NC(=O)[C@H]2CCCN2C(=O)[C@H](NC(=O)[C@@H](NC(=O)[C@@H](NC(=O)[C@@H](Cc2ccccc2)NC(=O)CCCC(C)C)[C@@H](C)O)C(C)C)C(C)C)[C@H](C)CC)[C@H](C)OC(=O)[C@H](C(C)C)NC1=O: 0.53
C/C=C1\NC(=O)[C@@H]2C[C@@H]3CCCC[C@@H]3N2C(=O)[C@@H](C(C)C)NC(=O)[C@@H]([C@H](C)CC)NC(=O)[C@H](NC(=O)[C@H](NC(=O)[C@H](CCCN)NC(=O)[C@H]2CCCN2C(=O)[C@H](NC(=O)[C@@H](NC(=O)[C@@H](NC(=O)[C@H](NC(=O)CC[C@@H](C)CC)C(C)C)[C@@H](C)O)C(C)C)C(C)C)[C@H](C)CC)[C@H](C)OC(=O)[C@H](C(C)C)NC1=O: 0.68

Consider now this further compound.
Q) # query: log10 GI50 | item "C/C=C1\NC(=O)[C@H](Cc2ccccc2)NC(=O)[C@@H](C(C)C)NC(=O)[C@@H]([C@H](C)CC)NC(=O)[C@H](NC(=O)[C@H](NC(=O)[C@H](CCCC[N+](C)(C)C)NC(=O)[C@H]2CCCN2C(=O)[C@H](NC(=O)[C@@H](NC(=O)[C@@H](NC(=O)[C@H](NC(=O)CC[C@@H](C)CC)C(C)C)[C@@H](C)O)C(C)C)C(C)C)[C@H](C)CC)[C@H](C)OC(=O)[C@H](C(C)C)NC1=O" | system: K562
A) 0.26
